Biological target: human ErbB3 (human, UniProt P21860 20-1342)
Assay: cell-based or functional assay
MEASUREMENT KIND: IC50, NRG1-β1 dependent proliferation of MCF7 cells (MTT) (nM)
Entry rule: numbers only, all in nM.

BINDER	REPORTED MEASUREMENT
22A02 (antibody, mouse IgG1, kappa, V domains shown, Murine IgG1/kappa, from hybridoma; also called anti-hErbB3 monoclonal antibody 22A02) VH: QVQLQQPGAELVRPGTSVKLSCKASGYTFTNYWMHWVKQRPGQGLEWIGMIDPSDSYTNYNPKFKGKATLTVDTSSSTAYMQLSSLTSEDSAVYYCARNYSGDYWGQGTTLTVSS VL: DVLMTQTPLSLPVSLGDQASISCRSSQSIVHSNGNTYLEWYLQKPGQSPKLLIYKVSNRFSGVPDRFSGSGSGTDFTLKISRVEAEDLGVYYCFQGSYVPWTFGGGTKLEIKR	1.62
04D01 (antibody, mouse IgG1, kappa, V domains shown, Murine IgG1/kappa, purified from hybridoma; also called anti-hErbB3 monoclonal antibody 04D01) VH: QVQLQQPGAELVRPGTSVKLSCKASGYTFTSHWLHWVKQRPGQGLEWIGVLDPSDFYSNYNQNFKGKATLTVDTSSSTAYMQLSSLTSEDSAVYYCARGLLSGDYAMDYWGQGTSVTVSS VL: DVLMTQIPLSLPVSLGDQASISCRSSQSIVHSNGNTYLEWYLQKPGQSPKSLIYKVSNRFSGVPDRFSGSGSGTDFTLKISRVEAEDLGVYYCFQGSYVPWTFGGGTKLEIKR	0.47
09D03 (antibody, mouse IgG2b, kappa, V domains shown, Murine IgG2b/kappa, from hybridoma; also called anti-hErbB3 monoclonal antibody 09D03) VH: QVTLKESGPGILRPSQTLSLTCSFSGFSLSTFGLSVGWIRQPSGKGLEWLAHIWWDDDKYYNPALKSRLTISKDTSKNQVFLKIANVDTADTATYYCARIGADALPFDYWGQGTTLTVSS VL: DIVLTQTAPSVPVTPGESVSISCRSSKSLLHSNGNTYLYWFLQRPGQSPQLLIYRMSNLASGVPDRFSGSGSGTAFTLRISRVEAEDVGVYYCMQHLEYPFTFGSGTKLEIKR	2.28

// below: IC50, NRG1-β1 dependent proliferation of MCF7 cells (MTT) requested for another binder
[in] Could you share which IC50, NRG1-β1 dependent proliferation of MCF7 cells (MTT) value was measured for 12A07 (antibody, mouse IgG1, kappa, V domains shown, Murine IgG1/kappa, from hybridoma; also called anti-hErbB3 monoclonal antibody 12A07) VH: QVQLLQPGAELVRPGTSVKLSCKTSGYTFSSYWMHWVKQRPGQGLEWIGMIDPSDVYTNYNPKFKGKATLTVDTSSSTAYMQLSSLTSEDSAVYYCARNYSGDYWGQGTTLTVSS VL: DVLMTQIPLSLPVSLGDQASISCRSSQSIVHSNGNTYLEWYLQKPGQSPKLLIYKVSNRFSGVPDRFSGSGSGTDFTLKISRVEAEDLGVYYCFQGSYVPWTFGGGTKLEIKR ?
[out] 0.74
